Test system: MEXF 1539
experiment_summary: clonogenic assay, human tumor xenografts in vitro
Type: cell-based
condition_details: Melanoma, MEXF 1539, Melanoma, soft agar, read-out: IC50 (nM), colony formation
readout_type: IC50 (nM)
The answer is to be given in nM; state only the numeric part.

Q: Entry under review: CCNC(=O)c1noc(-c2cc(C(C)C)c(O)cc2O)c1-c1ccc(CN2CCOCC2)cc1 . Reported IC50?
Ans: 3

---

Tested on: OVXF 1353
experiment_summary: clonogenic assay, human tumor xenografts in vitro
Assay type: cell-based
condition_details: Ovary, OVXF 1353, Adeno carcinoma, soft agar, read-out: IC50 (nM), colony formation
readout_type: IC50 (nM)
The answer is to be given in nM; state only the numeric part.

Q: Entry under review: CCNC(=O)c1noc(-c2cc(C(C)C)c(O)cc2O)c1-c1ccc(CN2CCOCC2)cc1 . Reported IC50?
Ans: 26

---

Test system: PC3
experiment_summary: cell proliferation, tumor derived cell lines
Type: cell-based
condition_details: Homo sapiens, PC-3, Prostate, 72 or 96 hours exposure
readout_type: IC50 (nM)
The answer is to be given in nM; state only the numeric part.

Q: Entry under review: CCNC(=O)c1noc(-c2cc(C(C)C)c(O)cc2O)c1-c1ccc(CN2CCOCC2)cc1 . Reported IC50?
Ans: 5

---

Tested on: MAWI
experiment_summary: cell proliferation, tumor derived cell lines
Assay type: cell-based
condition_details: Colon, 72 or 96 hours exposure
readout_type: IC50

Q: Entry under review: CCNC(=O)c1noc(-c2cc(C(C)C)c(O)cc2O)c1-c1ccc(CN2CCOCC2)cc1 [AUY922] . Reported IC50?
Ans: 50 nM

---

Test system: LXFL 1647
experiment_summary: clonogenic assay, human tumor xenografts in vitro
Format: cell-based
condition_details: Lung, non-small cell, LXFL 1647, Large cell lung carcinoma, soft agar, read-out: IC50 (nM), colony formation
readout_type: IC50 (nM)
The answer is to be given in nM; state only the numeric part.

Q: Entry under review: CCNC(=O)c1noc(-c2cc(C(C)C)c(O)cc2O)c1-c1ccc(CN2CCOCC2)cc1 . Reported IC50?
Ans: 34

---

Tested on: LXFA 526
experiment_summary: clonogenic assay, human tumor xenografts in vitro
Type: cell-based
condition_details: Lung, non-small cell, LXFA 526, Adeno carcinoma, soft agar, read-out: IC50 (nM), colony formation
Protocol: The anticancer activity of 5-(2,4-Dihydroxy-5-isopropyl-phenyl)-4-(4-morpholin-4-ylmethyl-phenyl)-isoxazole-3-carboxylic acid ethylamide is evaluated in 30 human tumor xenografts in vitro using a clonogenic assay. In this assay, human cells derived from cancer patients are evaluated for the capacity of 5-(2,4-Dihydroxy-5-isopropyl-phenyl)-4-(4-morpholin-4-ylmethyl-phenyl)-isoxazole-3-carboxylic acid ethylamide to inhibit the formation of 3 dimensional colonies. […]
readout_type: IC50
# include the unit after the value

Q: Form field - read-out: IC50; system: LXFA 526; submitted item: CCNC(=O)c1noc(-c2cc(C(C)C)c(O)cc2O)c1-c1ccc(CN2CCOCC2)cc1 [AUY922]
Ans: 5 nM

---

Test system: A2780
experiment_summary: cell proliferation, tumor derived cell lines
Type: cell-based
condition_details: Homo sapiens, Ovarian, 72 or 96 hours exposure
readout_type: IC50 (nM)
The answer is to be given in nM; state only the numeric part.

Q: Entry under review: CCNC(=O)c1noc(-c2cc(C(C)C)c(O)cc2O)c1-c1ccc(CN2CCOCC2)cc1 [AUY922] . Reported IC50?
Ans: 6.1
